Source listed as patent US4769377A.

Biological target: UniProtKB P25099
Sequence (P25099 1-326): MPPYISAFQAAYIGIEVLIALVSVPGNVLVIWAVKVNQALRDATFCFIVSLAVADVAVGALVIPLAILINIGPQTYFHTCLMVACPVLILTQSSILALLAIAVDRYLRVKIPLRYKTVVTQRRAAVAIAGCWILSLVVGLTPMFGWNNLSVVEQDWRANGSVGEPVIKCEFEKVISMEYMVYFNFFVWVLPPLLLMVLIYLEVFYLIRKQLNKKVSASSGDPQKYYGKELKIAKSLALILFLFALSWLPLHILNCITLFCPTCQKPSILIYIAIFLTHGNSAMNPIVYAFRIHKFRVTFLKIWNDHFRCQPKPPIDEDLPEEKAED
READOUT LABEL: Ki (nM)
Please give a number only; it is taken to be in nM.

Return reported Ki; argument: CCCn1c(=O)c2[nH]c(-c3ccc(Cl)cc3N)nc2n(CCC)c1=O
5
